# Test system: Heliothis virescens
# Assay method text: Action on Tobacco Budworm (Heliothis virescens)
# Type: in vivo
# Experimental context: 800 ppm; egg and larval mortality; 5 days
Property measured: mortality in comparison with untreated controls

| Structure smiles | Reported |
| --- | --- |
| Cc1ccc(C(C)C)c(N2C(=O)CSC2=NC(=O)Nc2ccc(-n3cc(NC(=O)c4cc(Cl)cs4)c(C)n3)cc2)c1 | at least 75% |
| Cc1ccc(C(C)C)c(N2C(=O)CSC2=NC(=O)Nc2ccc(-n3cc(NC(=O)c4ccc(C5(F)CC5)cc4)c(C)n3)cc2)c1 | at least 75% |
| Cc1ccc(C(C)C)c(N2C(=O)CS/C2=N\C(=O)Nc2ccc(-n3nc(C)c(NC(=O)c4ccc(OC(F)(F)F)cc4)c3NCC3OCCO3)cc2)c1 | at least 75% |

====

# Tested on: Aedes aegypti
# Assay method text: whole plant or invertebrate
# Assay type: in vivo
# Experimental context: 800 ppm; larvae; 2 days
Property measured: mortality in comparison with untreated controls

| Compound | Reported |
| --- | --- |
| Cc1ccc(C(C)C)c(N2C(=O)CS/C2=N\C(=O)Nc2ccc(-n3cc(NC(=O)c4ccc(F)c(Cl)c4)c(C)n3)cc2)c1 [Example C-28] | at least 50% |
| Cc1ccc(C(C)C)c(N2C(=O)CS/C2=N\C(=O)Nc2ccc(-n3cc(NC(=O)c4ccc(OC(F)(F)F)cc4)c(C)n3)cc2F)c1 [Example C-6] | at least 50% |
| Cc1ccc(C(C)C)c(N2C(=O)CSC2=NC(=O)Nc2ccc(-n3nc(C)c(NC(=O)c4ccc(F)c(Cl)c4)c3C)cc2)c1 [Example C-113] | at least 50% |

====

# Test system: Plutella xylostella
# Assay method text: Action on Diamond Back Moth (Plutella xylostella), cabbage leaf dip, 3rd instar larvae
# Assay type: in vivo
# Experimental context: 300 ppm; 3rd instar larvae; 72 hours after treatment
Property measured: mortality in comparison with untreated controls

| Molecule | Reported |
| --- | --- |
| CCOc1ccc(C(=O)Nc2cn(-c3ccc(NC(=O)N=C4SCC(=O)N4c4cc(C)ccc4C(C)C)cc3)nc2C)cc1 [Example C-85] | at least 75% |
| Cc1ccc(C(C)C)c(N2C(=O)CSC2=NC(=O)Nc2ccc(-n3nc(C)c(NC(=O)c4ccc(Cl)c(C#N)c4)c3C)cc2)c1 [Example C-118] | at least 75% |
| Cc1ccc(C(C)C)c(N2C(=O)CS/C2=N\C(=O)Nc2ccc(-n3cc(NC(=O)c4ccc(Cl)c(Cl)c4)c(C)n3)cc2)c1 [Example C-26] | at least 75% |

====

# Test system: Plutella xylostella
# Assay method text: Action on Diamond Back Moth (Plutella xylostella), cabbage leaf dip, 3rd instar larvae
# Assay type: in vivo
# Experimental context: 300 ppm; 3rd instar larvae; 72 hours after treatment
Property measured: mortality in comparison with untreated controls

| Structure smiles | Reported |
| --- | --- |
| Cc1ccc(C(C)C)c(N2C(=O)CS/C2=N\C(=O)Nc2ccc(-n3cc(NC(=O)c4ccc(C#N)cc4)c(C)n3)cc2)c1 | at least 75% |
| Cc1ccc(C(C)C)c(N2C(=O)CSC2=NC(=O)Nc2ccc(-n3cc(NC(=O)c4csc(Cl)c4)c(C)n3)cc2)c1 | at least 75% |
| C#Cc1ccc(C(=O)Nc2cn(-c3ccc(NC(=O)/N=C4\SCC(=O)N4c4cc(C)ccc4C(C)C)cc3)nc2C)cc1 | at least 75% |

====

# Tested on: Spodoptera eridania
# Assay method text: Action on Southern Armyworm (Spodoptera eridania), 2nd Instar Larvae
# Type: in vivo
# Experimental context: 300 ppm; 2nd instar larvae; 4 days after treatment
Property measured: mortality in comparison with untreated controls

| Structure smiles | Reported |
| --- | --- |
| Cc1ccc(C(C)C)c(N2C(=O)CS/C2=N\C(=O)Nc2ccc(-n3cc(NC(=O)c4ccc(OC(F)(F)F)cc4)c(C)n3)cc2F)c1 | at least 75% |
| Cc1ccc(C(C)C)c(N2C(=O)CSC2=NC(=O)Nc2ccc(-n3nc(C)c(NC(=O)c4ccc(C#N)c(F)c4)c3C)cc2)c1 | at least 75% |
| Cc1ccc(C(C)C)c(N2C(=O)CSC2=NC(=O)Nc2ccc(-n3nc(C)c(NC(=O)c4ccc(F)c(F)c4)c3C)cc2)c1 | at least 75% |

====

# Tested on: Plutella xylostella
# Assay method text: Action on Diamond Back Moth (Plutella xylostella), cabbage leaf dip, 3rd instar larvae
# Format: in vivo
# Experimental context: 300 ppm; 3rd instar larvae; 72 hours after treatment
Property measured: mortality in comparison with untreated controls

| Compound | Reported |
| --- | --- |
| CCN(C(=O)c1ccc(OC(F)(F)F)cc1)c1c(C)nn(-c2ccc(NC(=O)/N=C3\SCC(=O)N3c3cc(C)ccc3C(C)C)c(Cl)c2)c1C [Example C-97] | at least 75% |
| Cc1ccc(C(C)C)c(N2C(=O)CS/C2=N\C(=O)Nc2ccc(-n3cc(NC(=O)c4cccs4)c(C)n3)cc2)c1 [Example C-95] | at least 75% |
| Cc1ccc(C(C)C)c(N2C(=O)CS/C2=N\C(=O)Nc2ccc(-n3nc(C)c(NC(=O)c4ccc(OC(F)(F)F)cc4)c3C)cc2)c1 [Example C-15] | at least 75% |

====

# System: Anthonomus grandis
# Assay method text: Action on Boll Weevil (Anthonomus grandis)
# Format: in vivo
# Experimental context: 800 ppm; egg and larval mortality; 5 days
Property measured: mortality in comparison with untreated controls

| Structure smiles | Reported |
| --- | --- |
| COc1cc(-n2cc(NC(=O)c3ccc(OC(F)(F)F)cc3)c(C)n2)ccc1NC(=O)/N=C1\SCC(=O)N1c1cc(C)ccc1C(C)C | at least 75% |
| Cc1ccc(C(=O)Nc2cn(-c3ccc(NC(=O)N=C4SCC(=O)N4c4cc(C)ccc4C(C)C)cc3)nc2C)cc1 | at least 75% |
| Cc1ccc(C(C)C)c(N2C(=O)CSC2=NC(=O)Nc2ccc(-n3nc(C)c(NC(=O)c4ccc(OC(F)(F)F)cc4)c3C)c(Cl)c2Cl)c1 | at least 75% |
| Cc1ccc(C(C)C)c(N2C(=O)CSC2=NC(=O)Nc2ccc(-n3nc(C)c(NC(=O)c4ccc(OC(F)(F)F)cc4)c3C)c(Cl)c2)c1 | at least 75% |
| Cc1ccc(C(C)C)c(N2C(=O)CS/C2=N\C(=O)Nc2ccc(-n3cc(NC(=O)c4ccc(C#N)cc4)c(C)n3)cc2)c1 | at least 75% |
| Cc1ccc(C(C)C)c(N2C(=O)CS/C2=N\C(=O)Nc2ccc(-n3cc(NC(=O)c4ccc(OC(F)(F)F)cc4)c(C)n3)cc2F)c1 | at least 75% |
| Cc1nn(-c2ccc(NC(=O)NC(=S)Nc3ccccc3C(C)C)cc2)cc1NC(=O)c1ccc(OC(F)(F)F)cc1 | at least 75% |
| Cc1ccc(C(C)C)c(N2C(=O)CS/C2=N\C(=O)Nc2ccc(-n3cc(NC(=O)c4ccc(C#N)cc4Cl)c(C)n3)cc2)c1 | at least 75% |
| Cc1ccc(C(C)C)c(N2C(=O)CS/C2=N\C(=O)Nc2ccc(-n3cc(NC(=O)c4cccs4)c(C)n3)cc2)c1 | at least 75% |
| Cc1ccc(C(C)C)c(NC(=S)NC(=O)Nc2ccc(-n3cc(NC(=O)c4ccc(OC(F)(F)F)cc4)c(C)n3)cc2)c1 | at least 75% |

====

# System: Heliothis virescens
# Assay method text: Action on Tobacco Budworm (Heliothis virescens)
# Assay type: in vivo
# Experimental context: 800 ppm; egg and larval mortality; 5 days
Property measured: mortality in comparison with untreated controls

| Structure smiles | Reported |
| --- | --- |
| Cc1ccc(C(C)C)c(N2C(=O)CSC2=NC(=O)Nc2ccc(-n3nc(C)c(NC(=O)c4cc(F)c(F)c(F)c4)c3C)cc2)c1 | at least 75% |
| Cc1ccc(C(C)C)c(N2C(=O)CSC2=NC(=O)Nc2ccc(-n3cc(NC(=O)c4ccc([N+](=O)[O-])cc4)c(C)n3)cc2)c1 | at least 75% |
| Cc1ccc(C(C)C)c(N2C(=O)CSC2=NC(=O)Nc2ccc(-n3nc(C)c(NC(=O)c4ccc(F)c(Cl)c4)c3C)cc2)c1 | at least 75% |

====

# Test system: Anthonomus grandis
# Assay method text: Action on Boll Weevil (Anthonomus grandis)
# Format: in vivo
# Experimental context: 800 ppm; egg and larval mortality; 5 days
Property measured: mortality in comparison with untreated controls

| Structure smiles | Reported |
| --- | --- |
| Cc1ccc(C(C)C)c(N2C(=O)CSC2=NC(=O)Nc2ccc(-n3nc(C)c(NC(=O)c4ccc(F)cc4)c3C)cc2)c1 | at least 75% |
| Cc1ccc(C(C)C)c(NC(=S)NC(=O)Nc2ccc(-n3nc(C)c(NC(=O)c4ccc(OC(F)(F)F)cc4)c3C)cc2Cl)c1 | at least 75% |
| Cc1ccc(C(C)C)c(N2C(=O)CS/C2=N\C(=O)Nc2ccc(-n3cc(NC(=O)c4ccc(F)c(Cl)c4)c(C)n3)cc2)c1 | at least 75% |
